The measurements presented in this section are drawn from patent US12605753B2.

- Test system: Bacillus subtilis B1, B2, and B3 strains
- Assay method text: PCR with primers for unique signature sequences
- Setup conditions: amplicon generated by the forward/reverse primer pair (LSBS n-F / n-R) specific for Bacillus subtilis B1, B2, B3 strains
Reported endpoint: PCR Product Size (bp)
Answers without a unit are incomplete; give the number and then its unit.

Look over these answered cases.
LSBS 10-F (DNA CAGATGAAGTTGGTGGTGTTTC; listed as DNA, chemistry not given here); 743 bp
LSBS 4-F (DNA CATGCGGAACTCCAATTTCTTC; listed as DNA, chemistry not given here); 263 bp
LSBS 11-F (DNA ATGCGGCTAGACATGGATATG; listed as DNA, chemistry not given here); 687 bp
LSBS 5-F (DNA CCATTAGGGTCAACATGGTCTAA; listed as DNA, chemistry not given here); 273 bp
LSBS 6-F (DNA CACCGAACTCTGCTGAGAAA; listed as DNA, chemistry not given here); 523 bp
LSBS 9-F (DNA GCCATCAGGCTGTTTGTAGA; listed as DNA, chemistry not given here); 679 bp
LSBS 3-F (DNA CGGAGTTTGTTAGCGAAGTTATTG; listed as DNA, chemistry not given here); 543 bp
LSBS 12-F (DNA TGTCCCTCTTTAGGTGCTATTG; listed as DNA, chemistry not given here); 954 bp

# lookup: PCR Product Size (bp) of LSBS 8-F (DNA GCTGTAGACGACTGGGTACTA; listed as DNA, chemistry not given here) 750 bp

###

- System: Bacillus subtilis B1, B2, and B3 strains
- Assay method text: PCR with primers for unique signature sequences
- Setup conditions: amplicon generated by the forward/reverse primer pair (LSBS n-F / n-R) specific for Bacillus subtilis B1, B2, B3 strains
Reported endpoint: PCR Product Size (bp)
Write the value in bp as a bare number.

Some solved entries appear below for comparison.
LSBS 1-F (DNA GGACACAGATCATTGGGAGTT; listed as DNA, chemistry not given here); 769
LSBS 7-F (DNA CCTCTGCCCAAGACATATCAA; listed as DNA, chemistry not given here); 913
LSBS 13-F (DNA CCCTCTAGCTCTTTCTTCTTCAC; listed as DNA, chemistry not given here); 496

Query substance follows.
So what's the measured PCR Product Size (bp) for this one? LSBS 2-F (DNA TCAATTCCTCTGCACCACTTAT; listed as DNA, chemistry not given here) 906
